# reported pIC50; entries follow
- Tested on: 233499-124-R-J3-PDC complex spheroid viability;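 also: spheroids exposed to the drug combinations for seven days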
- ASSAY_PROCEDURE: Anticancer human tumor 233499-124-R-J3-PDC patient-derived colon adenocarcinoma cell line growth inhibition [CLK]
- CONDITION_LABEL: curve of first compound; second compound 10 µM
pIC50: −log10 of the molar value.

Sample answers from the record:
1. C=CC(=O)Nc1cc(Nc2nccc(-c3cn(C)c4ccccc34)n2)c(OC)cc1N(C)CCN(C)C + CNC(=O)c1ccc(Nc2nc(OC3CCCC3)c3c(-c4ccc5nc(C)oc5c4)c[nH]c3n2)c(OC)c1	< 6.52
2. O=C(c1cc(Cc2n[nH]c(=O)c3ccccc23)ccc1F)N1CCN(C(=O)C2CC2)CC1 + CN1CCN(c2cc(C(=O)Nc3cc4cc(-c5cnn(C)c5)ccc4cn3)ccn2)CC1	> 7.50

Next:
Would you please give the reported pIC50 of CCCS(=O)(=O)Nc1ccc(F)c(C(=O)c2c[nH]c3ncc(-c4ccc(Cl)cc4)cc23)c1F + CN1CCN(c2cc(C(=O)Nc3cc4cc(-c5cnn(C)c5)ccc4cn3)ccn2)CC1 with 233499-124-R-J3-PDC complex spheroid viability?
> 7.50

These data points were gathered from PubChem BioAssay AID2060613.
